biological target: CYP2D6 (Homo sapiens, UniProt P10635); test: Reversible CYP inhibition in human liver microsomes; conditions: human, microsomes, pH 7.4, Percent of Control Activity, CYP 2D6, 0.979 µM, 30-Minute Preincubation
Sequence (P10635 whole entry): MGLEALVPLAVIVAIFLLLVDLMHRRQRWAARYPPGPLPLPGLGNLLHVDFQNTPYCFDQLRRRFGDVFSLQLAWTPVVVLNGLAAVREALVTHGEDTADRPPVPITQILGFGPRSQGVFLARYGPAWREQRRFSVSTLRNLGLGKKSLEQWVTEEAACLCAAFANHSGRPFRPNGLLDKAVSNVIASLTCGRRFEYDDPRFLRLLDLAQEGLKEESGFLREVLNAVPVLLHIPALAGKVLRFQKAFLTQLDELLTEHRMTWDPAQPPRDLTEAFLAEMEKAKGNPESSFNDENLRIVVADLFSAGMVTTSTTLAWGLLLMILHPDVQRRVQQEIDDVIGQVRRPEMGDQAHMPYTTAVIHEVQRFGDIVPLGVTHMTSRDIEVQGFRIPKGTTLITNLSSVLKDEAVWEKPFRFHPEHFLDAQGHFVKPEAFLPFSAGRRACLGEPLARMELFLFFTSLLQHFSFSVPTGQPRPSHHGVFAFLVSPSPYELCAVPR
assay_metric: activity at 0.979 µM (%)
Write the number in % without appending the unit.

Lookup result for COc1cccc2[nH]c(C(=O)N[C@@H](CC(C)C)C(=O)N[C@@H](C[C@@H]3CCNC3=O)C(=O)CO)cc12 ; measured activity at 0.979 µM: 104

* * *

target: CYP2C8 (Homo sapiens, UniProt P10632); experiment: Reversible CYP inhibition in human liver microsomes; details: human, microsomes, pH 7.4, Percent of Control Activity, CYP 2C8, 0.1 µM, Zero-Minute Preincubation
Sequence (P10632 whole entry): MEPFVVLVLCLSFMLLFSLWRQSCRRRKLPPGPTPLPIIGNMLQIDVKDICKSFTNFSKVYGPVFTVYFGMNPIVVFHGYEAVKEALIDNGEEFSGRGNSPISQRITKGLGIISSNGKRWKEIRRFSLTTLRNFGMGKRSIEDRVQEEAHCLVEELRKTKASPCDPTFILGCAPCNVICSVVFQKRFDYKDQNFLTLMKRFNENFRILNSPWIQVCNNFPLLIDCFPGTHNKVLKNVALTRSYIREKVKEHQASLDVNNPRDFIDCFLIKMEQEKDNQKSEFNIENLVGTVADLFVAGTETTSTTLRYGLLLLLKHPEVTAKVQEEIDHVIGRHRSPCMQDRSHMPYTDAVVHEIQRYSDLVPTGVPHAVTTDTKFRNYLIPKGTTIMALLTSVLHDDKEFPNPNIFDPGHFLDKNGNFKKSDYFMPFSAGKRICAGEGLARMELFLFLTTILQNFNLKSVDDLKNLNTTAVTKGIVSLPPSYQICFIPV
assay_metric: activity at 0.1 µM (%)
Report as a plain number; the unit % is understood.

The reported value for COc1cccc2[nH]c(C(=O)N[C@@H](CC(C)C)C(=O)N[C@@H](C[C@@H]3CCNC3=O)C(=O)CO)cc12 [PF-00835231] in terms of activity at 0.1 µM is 99.7
